# Target desc: T1, B3GNT2 (Homo sapiens, UniProt Q9NY97)
# T1 construct: The respective ORFs of candidate genes [CD274 (NM_014143), MCL1 (NM_021960), JUNB (NM_002229), and B3GNT2 (NM_006577)] were synthesized; expressed in transfected cells; host or cells: A375 melanoma cells (lentiviral ORF overexpression)
# T1 sequence (Q9NY97 1-397): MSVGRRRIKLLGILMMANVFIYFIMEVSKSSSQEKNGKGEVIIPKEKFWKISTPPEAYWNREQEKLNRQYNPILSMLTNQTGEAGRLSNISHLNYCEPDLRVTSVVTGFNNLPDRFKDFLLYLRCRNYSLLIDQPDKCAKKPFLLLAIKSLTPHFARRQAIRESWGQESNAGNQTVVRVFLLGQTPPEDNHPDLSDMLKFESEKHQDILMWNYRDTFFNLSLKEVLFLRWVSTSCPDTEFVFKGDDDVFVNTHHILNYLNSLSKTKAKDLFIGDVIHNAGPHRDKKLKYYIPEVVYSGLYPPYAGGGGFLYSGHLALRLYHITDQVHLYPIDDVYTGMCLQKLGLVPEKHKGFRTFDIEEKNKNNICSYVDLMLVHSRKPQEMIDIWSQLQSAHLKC
# Protocol notes: Co-IP of FLAG-tagged B3GNT2 followed by mass spectrometry
# Assay type: cell-based
# Parameters: unit not given here
# Test settings: Co-IP with FLAG antibody, C-terminally FLAG-tagged B3GNT2; mass spectrometry count, unit not given
For each of the molecules below, state its C-term flag.
One number for each entry.

# Molecule, C-term flag
data = [
    ("CASP14 (protein) MSNPRSLEEEKYDMSGARLALILCVTKAREGSEEDLDALEHMFRQLRFESTMKRDPTAEQFQEELEKFQQAIDSREDPVSCAFVVLMAHGREGFLKGEDGEMVKLENLFEALNNKNCQALRAKPKVYIIQACRGEQRDPGETVGGDEIVMVIKDSPQTIPTYTDALHVYSTVEGYIAYRHDQKGSCFIQTLVDVFTKRKGHILELLTEVTRRMAEAELVQEGKARKTNPEIQSTLRKRLYLQ", 9),
    ("ARF4 (protein) GLTISSLFSRLFGKKQMRILMVGLDAAGKTTILYKLKLGEIVTTIPTIGFNVETVEYKNICFTVWDVGGQDRIRPLWKHYFQNTQGLIFVVDSNDRERIQEVADELQKMLLVDELRDAVLLLFANKQDLPNAMAISEMTDKLGLQSLRNRTWYVQATCATQGTGLYEGLDWLSNELSKR", 4),
]

Continue with the next molecule.
Query: Requested read-out: C-term flag. Entry: SLC25A3 (protein) AVEEQYSCDYGSGRFFILCGLGGIISCGTTHTALVPLDLVKCRMQVDPQKYKGIFNGFSVTLKEDGVRGLAKGWAPTFLGYSMQGLCKFGFYEVFKVLYSNMLGEENTYLWRTSLYLAASASAEFFADIALAPMEAAKVRIQTQPGYANTLRDAAPKMYKEEGLKAFYKGVAPLWMRQIPYTMMKFACFERTVEALYKFVVPKPRSECSKPEQLVVTFVAGYIAGVFCAIVSHPADSVVSVLNKEKGSSASLVLKRLGFKGVWKGLFARIIMIGTLTALQWFIYDSVKVYFRLPRPPPPEMPESLKKKLGLTQ
Result: 9
